Assay: Acute toxicity test
Design: species or system rats (Crj:CD(SD) strain)
Details: rat, in vivo, iv, Female, 14 days observation, probit method
Description: Five rats (Crj:CD(SD) strain) of either sex were used per group. Solutions of the test compound were prepared as shown below and administered to rats intravenously or subcutaneously. The rats were then observed for 14 days. The LD50 values were calculated by the probit method. (Preparation of test solutions) The test compound was dissolved in hydrochloric acid and the solution was adjusted to pH 6-7 with sodium hydrogen carbonate and diluted with physiological saline to the required concentrations.
value-type: LD50 at 336 h (mg/kg)
Number in mg/kg, nothing else.

IN: Reported LD50 at 336 h, molecule C[C@H](C[C@@](C(N)=O)(c1ccccc1)c1ccccn1)N(C)C (relative stereo) : ____
OUT: 42.3

----------
assay: Acute toxicity test; design: species or system rats (Crj:CD(SD) strain); settings: rat, in vivo, sc, Male, 14 days observation, probit method
value-type: LD50 at 336 h (mg/kg)
Numbers only here, please. The scale is mg/kg.

IN: Which LD50 at 336 h is listed for C[C@H](C[C@@](C(N)=O)(c1ccccc1)c1ccccn1)N(C)C (relative stereo) ?
OUT: 922

----------
experiment: Acute toxicity test; parameters: species or system rats (Crj:CD(SD) strain); conditions: rat, in vivo, iv, Male, 14 days observation, probit method
value-type: LD50 at 336 h (mg/kg)
Express the result in mg/kg but write the number alone.

IN: Give the measured LD50 at 336 h of C[C@H](C[C@@](C(N)=O)(c1ccccc1)c1ccccn1)N(C)C (relative stereo) [test compound] .
OUT: 47.2

----------
assay: Acute toxicity test; design: species or system rats (Crj:CD(SD) strain); conditions: rat, in vivo, sc, Female, 14 days observation, probit method
value-type: LD50 at 336 h
A complete answer gives the number followed by the unit.

IN: Reported LD50 at 336 h for C[C@H](C[C@@](C(N)=O)(c1ccccc1)c1ccccn1)N(C)C (relative stereo) : what is it?
OUT: 915 mg/kg
